Data provenance: patent US20230219961A1

Read-out record for CDK9 (Homo sapiens): IC50
Measured Property: IC50 (nM)

Consider the reported IC50 for these molecules:
INSERT INTO results (mol, experimental_result) VALUES
  ('C[C@H](C(=O)Nc1cc(-c2cnn3c2CC(C)(C)C3)c(Cl)cn1)c1ccnc(C#N)c1', 5.9),
  ('COc1ccc(CC(=O)Nc2cc(-c3cnn4c3CC(C)(C)C4)c(Cl)cn2)cn1', 5.2),
  ('COc1cc([C@H](C)C(=O)Nc2cc(-c3cnn4c3CC(C)(C)C4)c(Cl)cn2)ccn1', 3.4),
  ('C[C@@H](C(=O)Nc1cc(-c2cnn3c2CC(C)(C)C3)c(Cl)cn1)c1cccnc1', 2.9);

[a] C[C@@H](C(=O)Nc1cc(-c2cnn3c2CC(C)(C)C3)c(Cl)cn1)c1cccc(C#N)n1
[b] C=CC(=O)NCc1ccc(-c2ccc([C@H](C)C(=O)Nc3cc(-c4cnn5c4CC(C)(C)C5)c(Cl)cn3)cn2)cn1
Challenge: I would appreciate it if you could say which entry, a or b , has the lower IC50 value. Give the chosen item's label as your response.
Response given: a
(a: 3 nM, b: 8.4 nM)
